# Test system: 947758-054-R-J2-PDC spheroid growth, percent test/control;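 further: spheroids exposed to compounds for one week before readout; 100% = DMSO vehicle control wells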
# experimentalProtocol: Anticancer human tumor 947758-054-R-J2-PDC patient-derived colon adenocarcinoma cell line growth inhibition [CLK]
# testContext: second compound 1 µM; first compound 10 µM; stronger effect = lower value; spheroids with HUVEC and MSC
Listed here are compounds together with their documented viability, T/C.
Provide the reading as a plain figure in %.

Answered examples (2):
{"columns": ["compound", "viability, T/C (%)"],
 "data": [
  ["C=C(F)C(=O)N1CCN(c2nc(OCC3CCCN3C)nc3c2CCN(c2cccc4cccc(Cl)c24)C3)CC1CC#N (stereo not drawn) + CN1CCN(c2cc(C(=O)Nc3cc4cc(-c5cnn(C)c5)ccc4cn3)ccn2)CC1", 0.96],
  ["C#Cc1c(F)ccc2cc(O)cc(-c3ncc4c(N5CC6CCC(C5)N6)nc(OCC56CCCN5CC(F)C6)nc4c3F)c12 (stereo not drawn) + CN1CCN(c2cc(C(=O)Nc3cc4cc(-c5cnn(C)c5)ccc4cn3)ccn2)CC1", 0.21]
]}

q: Bench note: what viability, T/C did COc1cccc2c1C(=O)c1c(O)c3c(c(O)c1C2=O)CC(O)(C(=O)CO)CC3OC1CC(N)C(O)C(C)O1 (stereo not drawn) + CN1CCN(c2cc(C(=O)Nc3cc4cc(-c5cnn(C)c5)ccc4cn3)ccn2)CC1 show?
a: 6.86
